Every entry's value here was drawn from patent US20090048164A1.

Target: Recombinant human Bcl-xL with a 25 amino acid truncation of its C-terminus (human) (UniProt Q07817)
Sequence (Q07817 1-208): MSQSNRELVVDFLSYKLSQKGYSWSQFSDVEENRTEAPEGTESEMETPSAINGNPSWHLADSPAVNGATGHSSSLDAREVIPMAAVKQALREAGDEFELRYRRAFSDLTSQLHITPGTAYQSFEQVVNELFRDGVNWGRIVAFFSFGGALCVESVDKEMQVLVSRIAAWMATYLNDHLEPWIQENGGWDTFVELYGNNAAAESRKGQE
Experiment: competition phage ELISA
I'd be grateful if you could share measured Fold/wt for these entries.
Answers are plain numbers, in fold.

In the examples that follow, each entry is paired with its recorded Fold/wt.
- NLWEAQRYGRELRRMSDEFVDSFKKG [Bad BH3 A4E, phage-displayed]: 2
- NLWAAQRYGRELARMSDEFVDSFKKG [Bad BH3 R13A, phage-displayed]: 1
- NLWAAQRYGRELRRMSDEFVASFKKG [Bad BH3 D21A, phage-displayed]: 1
- NAWAAQRYGRELRRMSDEFVDSFKKG [Bad BH3 L2A, phage-displayed]: 2
- PSSTMGQVGRQLAIIGDDINARYDSE [Bak BH3 R21A, phage-displayed]: 2
- QEDIIRNIARHLAQVGDSMDRSIPAG [Bid BH3 P25A, phage-displayed]: 1
- PSSTMGQVGRQLAIIGDDINRRADSE [Bak BH3 Y23A, phage-displayed]: 1
- PSSTMGQVGRQLAIIGDAINRRYDSE [Bak BH3 D18A, phage-displayed]: 1

Batch of 4 binders: report Fold/wt for each.
1. QEDIIRNIARHLAQVGDSMDRAIPPG [Bid BH3 S22A, phage-displayed]
2. QEDIIANIARHLAQVGDSMDRSIPPG [Bid BH3 R6A, phage-displayed]
3. QADIIRNIARHLAQVGDSMDRSIPPG [Bid BH3 E2A, phage-displayed]
4. NLAAAQRYGRELRRMSDEFVDSFKKG [Bad BH3 W3A, phage-displayed]

1
3
1
1
